Taken from PubChem BioAssay (NCATS).

protocol details: Quantitative High-Throughput drug screen in 47 multiple myeloma cell lines against the NCATS MIPE library collection: LP1_DSMZ cell viability assay (AID 1918982); also: nearly all actives have a fitted effect of over 35% in size
measurement setup: LP1 myeloma viability, CellTiter-Glo ATP luminescence, 48 h; series mostly up to 45.8 µM
Records with an inconclusive call do not appear. The source made the active and inactive calls. Calls follow the shape of the dose curve; as a rule, active = well fitted cell-killing curve with a large enough effect; inconclusive = small, poorly fitted or top-dose-only effect, or effect the other way; inactive = no such curve, though single readings can be large or run the other way.
Select the correct class. Options are T for active, F for inactive and nothing else.

Task item: // return assay outcome for COc1cccc2c(NCc3ccccc3)nc(-n3c(N)nc4ccccc43)nc12
Reply: T

Task item: Can you handle Clc1ccc2ncc(-c3cccc(NC4CNC4)n3)n2c1 next?
Reply: T

Task item: Record: O=C(CCCCCCNC(=O)c1cnc(N(c2ccccc2)c2ccccc2)nc1)NO
Reply: T

Task item: Next molecule up: C#Cc1cccc(Nc2ncnc3cc(OC)c(OCCCCCCC(=O)NO)cc23)c1
Reply: T

Task item: Likewise for CNC(=O)c1nn(C)c2c1C(C)(C)Cc1cnc(Nc3ccc(N4CCN(C)CC4)cc3)nc1-2 ?
Reply: T

Task item: What would you report for OCCCNc1cc(-c2ccnc(Nc3cccc(Cl)c3)n2)ccn1 ?
Reply: T

Task item: Let us now turn to COc1ccc(CC2SC(=O)NC2=O)cc1C(=O)NCc1ccc(C(F)(F)F)cc1 (stereo not given)
Reply: F

Task item: Another molecule to look at: Nc1ccc(S(=O)(=O)Nc2ncccn2)cc1
Reply: F

Task item: Subsequent entry: CCCn1c(=O)c2[nH]c(-c3cnn(Cc4cccc(C(F)(F)F)c4)c3)nc2n(CC)c1=O
Reply: T

Task item: Now try Nc1nc(NCCNc2ncc(-n3ccnc3)c(-c3ccc(Cl)cc3Cl)n2)ccc1[N+](=O)[O-] .
Reply: T

----------
protocol details: Cytotoxicity counterscreen for NFkB agonists and antagonists (AID 624476);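 also: cells exposed to compound for 48 hours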
measurement setup: NFkB reporter cell line viability counterscreen; series mostly up to 46.1 µM
Inconclusive results are not listed. Activity calls are given as the source filed them. Calls come from the whole dose curve; as a rule, active = well fitted curve in the direction sought with a large enough effect; inconclusive = small, poorly fitted or top-dose-only effect, or another doubt; inactive = no such curve, though single readings can be large or run the other way.
Hi there, use one of these labels in your reply, thanks! active, inactive

Task item: Please let me know the test result on file for Cc1nc2cnc3ccc(C#Cc4cccnc4)cc3c2n1-c1ccc(C(C)(C)C#N)cc1 .
Reply: inactive

Task item: Would you kindly repeat that for CN1CCN(c2cc(C(=O)Nc3ccc4c(c3)-c3c(c(C(N)=O)nn3-c3ccc(F)cc3)CC4)c(Cl)cn2)CC1 ?
Reply: inactive

Task item: Again, but for COc1cc(OC2CCN(C)CC2)ccc1Nc1ncc2c(n1)n(C1CCCC1)c(=O)n2C
Reply: inactive

Task item: Ok, now COC(=O)[C@]12CCC(C)(C)C[C@@H]1[C@@H]1C(=O)C=C3[C@@]4(C)C=C(C#N)C(=O)C(C)(C)[C@@H]4CC[C@@]3(C)[C@]1(C)CC2
Reply: active

Task item: Try CN1CCN(c2ccc3nc(-c4c(N)c5c(F)cccc5[nH]c4=O)[nH]c3c2)CC1 next.
Reply: active

Task item: What about O=C(Nc1cc(C(F)(F)F)cc(C(F)(F)F)c1)c1cc(Cl)ccc1O ?
Reply: active

Task item: Field entry: Cc1cnc(-c2cnc(NCCNc3ccc(C#N)cn3)nc2-c2ccc(Cl)cc2Cl)[nH]1
Reply: inactive

Task item: Now give it for CN(C)CC=CC(=O)Nc1cc2c(Nc3ccc(F)c(Cl)c3)ncnc2cc1O[C@H]1CCOC1 too.
Reply: active

Task item: Now give it for Cc1[nH]c2ccccc2c1CCNCc1ccc(C=CC(=O)NO)cc1 too.
Reply: active
